testedSystem: SD1-RBD of SARS-CoV-2 S (ancestral), aa 319-591 (SARS-CoV-2, ancestral (Wuhan-Hu-1; …, UniProt P0DTC2)

binder: sd1.039 (antibody, V domains shown) VH: EVQLVQSGAEVKKPGESLKISCKASGYSFPTYWIGWVRQMPGKGLEWMGIIYPGDSDTRYSPSFQGQVTISADKSISTAYLQWSSLKASDTAIYYCARYGDSHIDSWGQGTLVTVSS VL: QSVLTQPRSASASLGASVTLNCTLSSGYSKYKVEWYQQRPGKGPRFLMRVGAGGIVGSKGDGIPDRFSVLGSGLNRYLIIKNIQQEDESDYHCGADHGSGSNFAYVVFGGGTKLTVL
binding result: binds

binder: sd1.034 (antibody, V domains shown) VH: EVQLVESGGGVVQPGRSLRLSCAASGFSFSNYGMHWVRQAPGKGLEWVAVISYDGSHKSFADSVKGRFTISRDNSKNTLNLQMNSLRREDTAVYYCATDQGGSLGYWGQGTLVTVSS VL: QSALTQPASVSGSPGQSITISCTGTSGDVGGYNYVSWYQHHPGKAPKLMIYDVSNRPSGVSNRFSGSKSGNTASLTISGLQAEDEADYYCSSYTSTSTSWVFGGGTKLTVL
binding result: binds

binder: rbd.031 (antibody, V domains shown) VH: EVQLVESGGGVVQPGRSLRLSCAASGFTFKTYGMHWVRQAPGKGLEWVAVISYEGSNEYYAESVKGRFTISRDNSKNTLYLHMNSLRAEDTAVYYCAKGEYYYHSSTYYYLDYWGRGTLVTVSS VL: DIQMTQSPSTLSASVGDRVTITCRASQSISSWLAWYQQKPGKAPKVLIYDASSLQSGVPLRFSGSGSGTEFTLTISSLQPDDFATYYCQQYDTYWTFGQGTKVEIK
binding result: binds
